Reported endpoint: melting point

# Molecule, melting point
rows = [
    ("Nc1nc2ccccc2c2c1ncn2CCCCNC(=O)c1cccc(C(=O)c2ccccc2)c1", "103 to 105 °C"),
]

Which melting point is listed for CNC(=C[N+](=O)[O-])NCCSCC1(OC)C=CC=NC1 (stereo unspecified) ?
146 to 147 °C

Recorded melting point of CCc1c(C)sc2nc(C(C)C)c(CO)c(-c3ccc(F)cc3)c12 , please.
188 to 191 °C

# query: melting point of entry CCc1nc2c(C)c(Br)c(C)nc2n1Cc1ccc2oc(-c3cccc(F)c3C(=O)O)c(Br)c2c1
223 to 225 °C

Fill in the blank: the reported melting point of CC(=O)N(CC(=O)N1c2ccccc2N(Cc2ccccc2)C(=O)[C@H]2CCC[C@H]21)Cc1ccccc1 (relative stereo) is ____.
179 to 181 °C

Fill in: melting point of CCOCCn1c(NC2CCN(CC(=O)O)CC2)nc2cccnc21 is ___
227 °C

* * *

Listing of recorded melting point by entry.

# count of solved cases: 10
# Molecule, melting point
data = [
    ("COc1ccc(C=Cc2ccc(CBr)cc2)c(Cl)c1", "99 to 100 °C"),
    ("N=C(N)c1nc2c(s1)CCc1c-2sc2nc3ccccc3n12", "> 300 °C"),
    ("COc1ccc(CN2CC(C(=O)O)CC2=O)cc1OC (stereo not drawn)", "176 to 178 °C"),
    ("C=C1CCC(C2OC(=O)NC2=O)CC1 (stereo not drawn)", "63 to 64 °C"),
    ("CC(C)(C)c1ccc(N)cn1", "61.5 to 62.7 °C"),
    ("COc1ccc(-c2cncn2-c2ccc(S(=O)(=O)NC(C)(C)C)cc2)cc1F", "229 to 232 °C"),
    ("CNC(=O)c1cncc(NC(=O)N2CCC3(CCc4ccc(F)cc4O3)CC2)c1", "231 to 233 °C"),
    ("COC(=O)C1(O)CC(O[Si](C)(C)C(C)(C)C)C(O)C(O[Si](C)(C)C(C)(C)C)C1 (stereo not drawn)", "82 to 82.5 °C"),
    ("COc1ccc(Cn2c(=O)[nH]c(=O)c3c2nc(C(C)(C)C)n3Cc2ccccc2)cc1", "170 to 172 °C"),
    ("Cc1cc(-n2cncn2)cc2c1NC(=O)CC2", "258 to 259 °C"),
]

Which measured melting point value corresponds to COc1cc(C(C)=O)ccc1-c1ccccc1F ?
84 to 85 °C

Which value of melting point has been reported for CC(CNC(=O)c1ccc(Cl)nc1)Cn1ccnc1 (stereo not drawn) in the records?
102 to 104 °C

# get_value(readout='melting point', item= Cn1c(COc2ccc(CC3SC(=O)NC3=O)cc2)nc2ccc(Oc3ccccn3)cc21 (stereo not drawn) )
200 to 210 °C

// lookup melting point for COC(=O)c1cc(C2CO2)cc([N+](=O)[O-])c1 (stereo not drawn)
59 to 60 °C

Data request, read-out melting point, for CNC(=O)C1CC(=O)c2nc(C)n(C)c2C1 (stereo not drawn)
194 to 196 °C

Consider the molecule CC(=O)Nc1cccc(-c2cnc(N(C)C)nc2)c1 and give its measured melting point.
183 to 188 °C

Entry CCc1ccc(-c2nc(Cl)c3ccccc3n2)cc1 has what melting point?
75.5 to 76.5 °C

Entry Nc1nc(-c2ccccc2)c(F)c(=O)[nH]1 : reported melting point = ?
276 to 278 °C
